target.or.test.system: P7, fluorescein-labelled proline-rich peptide from the SOS1 proline-rich domain (human)
measurement.protocol: fluorescence polarisation; 0.2 µM fluorescein-labelled peptide, SH3 domain titrated 0 to 200 µM; 30 mM Tris/HCl pH 7.5, 5 mM MgCl2, 3 mM DTT, 25 °C; quadratic ligand binding equation
measurement.label: pKd
Scale: negative log10 of molar concentration, which is what pKd denotes.

Query: Reported pKd, binder ARHGAP12 SH3 domain, GST cleaved (domain or fragment) PGQVYIEVEYDYEYEAKDRKIVIKQGERYILVKKTNDDWWQVKPDENSKAFYVPAQYVKEVTR : ____
Response: 6.70
